The measurements presented in this section are drawn from patent US20110213038A1.

tested on: adult bed bugs Cimex lectularius; assay: Vapor exposure of unconcealed bed bugs in sealed jar, 24 hour mortality; format: in vivo; conditions: one drop (about 25-30 mg) on filter paper in sealed 16 oz. glass jar, repeated test with other compounds
Readout type: 24 hr Mean Mortality % (%)
Output spec: scalar in %, unitless text.

In: Consider the compound shown here: CC(C)[C@@H]1CC[C@@H](C)C(=O)C1 [Tetrahydrocarvone] What is its recorded 24 hr Mean Mortality %?
Out: 58.1

In: Item CC(O)c1ccccc1 (stereo not shown) has what recorded 24 hr Mean Mortality %?
Out: 89.8

In: Sample C=C(C)[C@H]1CC=C(C)C(=O)C1 — what was its 24 hr Mean Mortality %?
Out: 47.8

In: Data request, read-out 24 hr Mean Mortality %, for C=C[C@@](C)(O)CCC=C(C)C
Out: 92.0
